Give measured pKd for each item. Keep answers brief.
- Target: T1, human beta CGRP (SEQ ID NO: 81) (human, not fully specified)
- T1 construct: also called human βCGRP; hβCGRP
- T1 peptide: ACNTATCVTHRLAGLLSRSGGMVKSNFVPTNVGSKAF
- Test summary: SPR, 37 C, mutein captured, CGRP analyte
- Excerpt: The Biotin CAPture Kit (GE Healthcare) was used to immobilize biotinylated lipocalin muteins to a chip surface. Muteins were biotinylated using standard NHS chemistry. […] The data were double-referenced by subtraction of the corresponding signals measured for the control channel (loaded with Biotin CAPture reagent only) and by subtraction of buffer injections from the binding responses. […]
Numbers only, as −log10 of the molar value.

lipocalin mutein SEQ ID NO: 26 (designed binder, biotinylated by NHS chemistry for capture in SPR) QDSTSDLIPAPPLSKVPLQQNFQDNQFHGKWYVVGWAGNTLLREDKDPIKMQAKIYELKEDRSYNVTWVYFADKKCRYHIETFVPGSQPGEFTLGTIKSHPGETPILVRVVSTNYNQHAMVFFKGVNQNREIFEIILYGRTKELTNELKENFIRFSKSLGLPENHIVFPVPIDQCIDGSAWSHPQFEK | 11.52

Turning to the following binder.
I am curious: what pKd value has been reported for lipocalin mutein SEQ ID NO: 25 (designed binder, biotinylated by NHS chemistry for capture in SPR) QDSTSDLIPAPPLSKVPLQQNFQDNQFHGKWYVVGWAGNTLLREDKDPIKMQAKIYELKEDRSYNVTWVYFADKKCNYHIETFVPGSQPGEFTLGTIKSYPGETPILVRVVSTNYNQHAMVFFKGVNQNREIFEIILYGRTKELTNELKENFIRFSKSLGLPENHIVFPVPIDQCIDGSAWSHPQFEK ?
11.30

Cited source for all entries: patent US20190338002A1
